Ref: the supplement of paper PMC4466140

# subjectOfTest: SpHof1
# assayExplanation: SPOT peptide array binding signal intensity (averaged, normalized) (arbitrary units (background-subtracted, floor 0; scale differs between SH3 domains)); higher = stronger binding of the SH3 domain to the peptide
binders and their reported SPOT peptide array binding signal intensity
Lab note: jot down the number only; don't add units.

Input line: State, in one line, measured SPOT peptide array binding signal intensity of "QRIRKIPGIPLMSVG"
Output line: 140

Input line: State, in one line, measured SPOT peptide array binding signal intensity of "ISRRRLPVIMHRLKM"
Output line: 285

Input line: State, in one line, measured SPOT peptide array binding signal intensity of "LKHGWKPLRPIKLIS"
Output line: 93

Input line: State, in one line, measured SPOT peptide array binding signal intensity of "RPPRPPPKPLHLRTE"
Output line: 65

Input line: State, in one line, measured SPOT peptide array binding signal intensity of "NLKKRPPTAPQRKIS"
Output line: 192

---
Input line: State, in one line, measured SPOT peptide array binding signal intensity of "VATSTSPKLPPRGKQ"
Output line: 1.25

Input line: State, in one line, measured SPOT peptide array binding signal intensity of "VNFRRIPTGPDSPPT"
Output line: 178
